src = PubChem BioAssay AID1159580

METHOD_NOTES: chemical genetic growth profiling, strain panel (AID 1159580);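 further: tested at 20 µM; growth read once vehicle control cultures reached saturation at 30 °C; 1 = growth at the plate median or of vehicle wells; lower values mean less growth of the strain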
CONDITIONS_USED: S. cerevisiae deletion strains, growth OD, locus YMR231W, strain pep5, active compounds read low
In all, about 5,500 compounds went through this assay and about 2,000 (36%) were called active. Not shown: some 18% with an inconclusive outcome. Some of the results follow.
REPORTED_METRIC: normalized growth
Answer with the value's number alone.

normalized growth recorded for this compound, "O=c1c(O)c(-c2ccccc2)oc2ccc3occc3c12" , is 1

For record "CC(=O)NS(=O)(=O)c1ccc(N)cc1" the listed normalized growth is 1.01

For record Oc1cc2c(cc1O)C(c1ccccc1)CNCC2 (configuration not stated) the listed normalized growth is 1.02
